- Measured on: UniProt:Q9NYK1
- Sequence (Q9NYK1 27-1049): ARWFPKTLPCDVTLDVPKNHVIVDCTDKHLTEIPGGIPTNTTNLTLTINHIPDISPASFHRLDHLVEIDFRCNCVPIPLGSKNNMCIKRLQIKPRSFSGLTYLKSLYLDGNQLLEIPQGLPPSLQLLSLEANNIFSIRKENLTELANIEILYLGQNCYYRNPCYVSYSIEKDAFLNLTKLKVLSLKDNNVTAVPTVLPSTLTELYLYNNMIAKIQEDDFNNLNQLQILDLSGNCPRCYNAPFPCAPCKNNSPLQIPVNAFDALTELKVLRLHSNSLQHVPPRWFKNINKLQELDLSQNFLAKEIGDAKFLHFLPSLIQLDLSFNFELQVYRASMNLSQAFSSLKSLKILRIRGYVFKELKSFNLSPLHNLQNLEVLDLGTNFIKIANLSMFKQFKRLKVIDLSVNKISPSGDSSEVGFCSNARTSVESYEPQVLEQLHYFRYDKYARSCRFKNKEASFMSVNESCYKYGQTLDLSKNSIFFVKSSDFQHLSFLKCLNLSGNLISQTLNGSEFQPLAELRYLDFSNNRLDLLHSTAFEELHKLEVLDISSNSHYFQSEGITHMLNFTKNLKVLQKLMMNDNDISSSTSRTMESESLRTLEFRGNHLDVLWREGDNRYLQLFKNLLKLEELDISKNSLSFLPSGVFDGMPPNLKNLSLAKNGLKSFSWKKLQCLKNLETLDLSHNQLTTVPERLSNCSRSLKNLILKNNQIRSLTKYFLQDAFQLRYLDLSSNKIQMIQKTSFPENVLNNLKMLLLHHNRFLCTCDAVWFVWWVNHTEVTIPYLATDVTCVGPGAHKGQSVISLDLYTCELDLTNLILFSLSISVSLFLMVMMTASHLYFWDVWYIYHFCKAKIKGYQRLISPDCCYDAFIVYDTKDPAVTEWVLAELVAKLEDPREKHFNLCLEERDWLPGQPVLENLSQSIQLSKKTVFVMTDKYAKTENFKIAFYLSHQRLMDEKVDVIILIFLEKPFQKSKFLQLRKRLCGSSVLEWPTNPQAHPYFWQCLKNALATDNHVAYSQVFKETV
- Procedure summary: HEK293-Blue-hTLR-7 cells assay (SEAP reporter, R848 stimulation)
- Assay setup: HEK293-Blue-hTLR7 cells, R848, 20 hrs incubation; read-out: HEK/hTLR7 IC50
Readout: IC50 (nM)
Numbers only, in nM.

1. C[C@@H]1CN(c2ccc(C#N)c3ncccc23)C[C@@H]2Cc3cc(N4CC(N)CC4=O)ccc3CN21 (stereo partly shown)	2.9
2. C[C@@H]1CN(c2ccc(C#N)c3ncccc23)C[C@@H]2Cc3cc(N4C[C@@H]5CNCCN5C4=O)ccc3CN21 (single isomer, unassigned) [Example 17A]	10.3
3. C[C@@H]1CN(c2ccc(C#N)c3ncccc23)C[C@@H]2Cc3cc(N4C[C@@H](F)[C@@H](N)C4)ccc3CN21	35.5

For each listed entry, give its IC50.
1. C[C@@H]1CN(c2ccc(C#N)c3ncccc23)C[C@@H]2Cc3cc(N4CC5CNCCC5C4=O)ccc3CN21 (stereo partly shown)
2. C[C@@H]1CN(c2ccc(C#N)c3ncccc23)C[C@@H]2Cc3cc(N4CC5NCCOC5C4)ccc3CN21 (stereo in doubt)
3. C[C@@H]1CN(c2ccc(C#N)c3ncccc23)C[C@@H]2Cc3cc(N4CCN(C(=O)C(C)(C)N)CC4)ccc3CN21
4. CO[C@H]1CN(c2ccc3c(c2)C[C@H]2CN(c4ccc(C#N)c5ncccc45)C[C@@H](C)N2C3)C[C@H]1N
5. C[C@@H]1CN(c2ccc(C#N)c3ncccc23)C[C@@H]2Cc3cc(N4C[C@H]5CNCCN5C4=O)ccc3CN21 (single isomer, unassigned) [Example 17B]
6. C[C@@H]1CN(c2ccc(C#N)c3ncccc23)C[C@@H]2Cc3cc(N[C@@H]4CNC[C@@H]4F)ccc3CN21
7. C[C@@H]1CN(c2ccc(C#N)c3ncccc23)C[C@@H]2Cc3cc(OCCN(C)C)ccc3CN21

result:
1. 53.1
2. 21.8
3. 18.6
4. 19.5
5. 10.3
6. 24.7
7. 5.8

For each listed entry, give its IC50.
1. C[C@@H]1CN(c2ccc(C#N)c3ncccc23)C[C@@H]2Cc3cc(N4CCN(C(=O)[C@]5(C)CCCN5)CC4)ccc3CN21
2. C[C@@H]1CN(c2ccc(C#N)c3ncccc23)C[C@@H]2Cc3cc(N4CC5CCNCC5C4=O)ccc3CN21 (stereo partly shown)
3. C[C@@H]1CN(c2ccc(C#N)c3ncccc23)C[C@@H]2Cc3ccc(OCCN(C)C)cc3CN21

result:
18.6
71.6
38.2

====

- Measured on: UniProt Q9NYK1
- Procedure summary: HEK293-Blue-hTLR-7 cells assay (SEAP reporter, R848 stimulation)
- Assay setup: HEK293-Blue-hTLR7 cells, R848, 20 hrs incubation; read-out: HEK/hTLR7 IC50
pIC50: −log10 of the molar value.
Values of pIC50 greater than or equal to 8 map to criterion met; values below map to criterion not met.

Look over these answered cases.
1) C[C@@H]1CN(c2ccc(C#N)c3ncccc23)C[C@@H]2Cc3cc(N4C[C@@H]5C[C@H]4CN5C(=O)C(C)(C)N)ccc3CN21	criterion met
2) C[C@@H]1CN(c2ccc(C#N)c3ncccc23)C[C@@H]2Cc3ccc(N4CCOCC(N)C4)cc3CN21 (some centres unmarked)	criterion not met
3) CO[C@H]1CNC[C@H]1Nc1ccc2c(c1)C[C@H]1CN(c3ccc(C#N)c4ncccc34)C[C@@H](C)N1C2	criterion not met

query: Could you tell me if the measured pIC50 of `C[C@@H]1CN(c2ccc(C#N)c3ncccc23)C[C@@H]2Cc3ccc(NCCN4CC[C@H](O)C4)cc3CN21` reaches 8 or more?
result: criterion not met

query: Consider next the compound `C[C@@H]1CN(c2ccc(C#N)c3ncccc23)C[C@@H]2Cc3cc(OC[C@@H]4CCN4)ccc3CN21` in the same way.
result: criterion not met

The origin of these recorded values is patent US20230002375A1.
